Would you kindly list pIC50 for each of these molecules?
# target_under_test: GPR3 (Homo sapiens, UniProt P46089)
# Construct: expressed in transfected cells; host or cells: CHO cells
# Sequence (P46089 whole entry, species assumed): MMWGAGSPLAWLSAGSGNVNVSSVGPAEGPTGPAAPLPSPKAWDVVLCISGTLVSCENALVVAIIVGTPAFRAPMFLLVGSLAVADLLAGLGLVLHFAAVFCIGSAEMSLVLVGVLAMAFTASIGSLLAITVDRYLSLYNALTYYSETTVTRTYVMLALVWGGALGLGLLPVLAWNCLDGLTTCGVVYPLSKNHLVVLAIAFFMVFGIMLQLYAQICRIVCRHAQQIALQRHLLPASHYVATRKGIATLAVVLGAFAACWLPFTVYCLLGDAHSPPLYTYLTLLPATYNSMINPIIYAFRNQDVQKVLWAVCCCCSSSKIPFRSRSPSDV
# measurement_protocol: GPR3 antagonist functional cAMP assay (LANCE Ultra cAMP TR-FRET, CHO cells stably expressing GPR3)
# Assay type: cell-based
# test_settings: CHO cells stably expressing GPR3, cAMP assay (Example 24)
pIC50: −log10 of the molar value.

Solved cases (10 shown):
1. Cn1cc(-c2nc3cncc(Cl)c3nc2N2CCC(Oc3ccc(F)cc3F)CC2)cn1 [Compound 411]	4.52 to 6.00
2. CC(=O)N1CCc2nc(N3CCC(Oc4ccc(F)cc4F)CC3)c(-c3ccnc(N)n3)nc2C1 [Compound 475]	4.52 to 6.00
3. COc1cccc(-c2nc3c(nc2N2CCN(Cc4cc(Cl)ccc4Cl)CC2)CCN(C(C)=O)C3)n1 [Compound 183]	4.52 to 6.00
4. Cc1cc2nc(N3CCC(Oc4ccc(F)cc4F)CC3)c(-c3cnn(C)c3)nc2cn1 [Compound 228]	4.52 to 6.00
5. COc1cncc(-c2nc3cnc(Cl)cc3nc2N2CCN(Cc3ccc(F)cc3F)CC2)n1 [Compound 159]	4.52 to 6.00
6. CC(C)(O)C(=O)N1CCc2nc(N3CCC(Oc4ccc(F)cc4F)CC3)c(-c3cn[nH]c3)nc2C1 [Compound 175]	4.52 to 6.00
7. CC(=O)N1CCc2nc(N3CCC(Oc4ccc(F)cc4F)CC3)c(-c3cnc4n3CCN(C)C4)nc2C1 [Compound 90]	4.52 to 6.00
8. CC(=O)N1CCc2nc(N3CCC(Oc4ccc(F)cc4F)CC3)c(-c3cccc(N4CCCC4)n3)nc2C1 [Compound 101]	4.52 to 6.00
9. CC(C)S(=O)(=O)N1CCc2nc(N3CCC(Oc4ccc(F)cc4F)CC3)c(-c3cn[nH]c3)nc2C1 [Compound 150]	4.52 to 6.00
10. COc1ccc(-c2nc3c(nc2N2CCC(Oc4ccc(F)cc4F)CC2)CCN(C(C)=O)C3)nn1 [Compound 189]	4.52 to 6.00

Value sought for every listed molecule: pIC50.
1. COC(=O)N1CCc2nc(N3CCC(Oc4ccc(F)cc4F)CC3)c(-c3cnn(C4CCCCO4)c3)nc2C1 (centres unmarked) [Compound 125]
2. CC(=O)N1CCc2nc(N3CCC(Oc4ccc(F)cc4F)CC3)c(-c3cnn(CC(C)C)c3)nc2C1 [Compound 195]
3. [2H]C([2H])([2H])n1cc(-c2nc3c(nc2N2CCC(Oc4ccc(F)cc4F)CC2)CCN(C(C)=O)C3)cn1 [Compound 405]
4. Cn1cc(-c2nc3cnc([C@H](O)C(C)(C)O)cc3nc2N2CCN(Cc3ccc(F)cc3F)CC2)cn1 (single isomer, unassigned) [Compound 262]
5. CC(=O)N1CCc2nc(N3CCC(C(=O)Nc4ccc(F)cc4)C3)c(-c3cnn(C)c3)nc2C1 (centres unmarked) [Compound 391]
6. COC[C@H]1CN(Cc2ccc(F)cc2F)CCN1c1nc2c(nc1-c1cnn(C)c1)CN(C(C)=O)CC2 (single isomer, unassigned) [Compound 249]
7. COCCN1CCc2nc(N3CCC(Oc4ccc(F)cc4F)CC3)c(-c3cn[nH]c3)nc2C1 [Compound 143]
8. CC(=O)N1CCc2nc(N3CCC(Oc4ccc(Cl)cc4F)CC3)c(-c3cnn(C)c3)nc2C1 [Compound 456]

Result:
1. 4.52 to 6.00
2. 4.52 to 6.00
3. 4.52 to 6.00
4. 4.52 to 6.00
5. 4.52 to 6.00
6. 4.52 to 6.00
7. 4.52 to 6.00
8. 4.52 to 6.00

Value sought for every listed molecule: pIC50.
1. CN1CCc2nc(N3CCC(Oc4ccc(F)cc4F)CC3)c(-c3cn[nH]c3)nc2C1 [Compound 139]
2. CNC(=O)N1CCc2nc(N3CCC(Oc4ccc(F)cc4F)CC3)c(-c3cn[nH]c3)nc2C1 [Compound 180]
3. COCC(O)c1cc2nc(N3CCC(Oc4ccc(F)cc4F)CC3)c(-c3cnn(C)c3)nc2cn1 (centres unmarked) [Compound 437]
4. Cn1cc(-c2nc3cnccc3nc2N2CCC(C)(Oc3ccc(F)cc3F)CC2)cn1 [Compound 188]
5. CC(=O)N1CCc2nc(N3CCC(Oc4ccc(F)cc4F)CC3)c(-c3cccn(C)c3=O)nc2C1 [Compound 113]

Result:
1: 4.52 to 6.00; 2: 4.52 to 6.00; 3: 4.52 to 6.00; 4: 4.52 to 6.00; 5: ≤ 4.52

Value sought for every listed molecule: pIC50.
1. COc1ccc(OC2CCN(c3nc4cnncc4nc3-c3cnn(C)c3)CC2)c(F)c1 [Compound 417]
2. Cn1cc(-c2nc3cnc([C@@H](O)C(C)(C)O)cc3nc2N2CCC(Oc3ccc(F)cc3F)CC2)cn1 (single isomer, unassigned) [Compound 379]
3. Fc1ccc(OC2CCN(c3nc4c(nc3-c3cn[nH]c3)CN(C3COC3)CC4)CC2)c(F)c1 [Compound 199]
4. CC(=O)N1CCc2nc(N3CCC(Oc4ccc(F)cc4F)CC3)c(C3CCC(=O)CC3)nc2C1 [Compound 404]
5. CC(=O)N1CCc2nc(N3CCC(Oc4ccc(F)cc4F)CC3)c(-c3cccc(C(=O)N(C)C)n3)nc2C1 [Compound 131]
6. CC(=O)N1CCc2nc(N3CCC(Oc4cc(C#N)ccc4F)CC3)c(-c3cnn(C)c3)nc2C1 [Compound 424]

Result:
1: 4.52 to 6.00; 2: 4.52 to 6.00; 3: 4.52 to 6.00; 4: 4.52 to 6.00; 5: 4.52 to 6.00; 6: 4.52 to 6.00
